- assay_system: EGFR L858R/T790M/C797S (Homo sapiens, UniProt P00533, C797S/L858R/T790M)
- Sequence (P00533 25-1210 T790M/C797S/L858R): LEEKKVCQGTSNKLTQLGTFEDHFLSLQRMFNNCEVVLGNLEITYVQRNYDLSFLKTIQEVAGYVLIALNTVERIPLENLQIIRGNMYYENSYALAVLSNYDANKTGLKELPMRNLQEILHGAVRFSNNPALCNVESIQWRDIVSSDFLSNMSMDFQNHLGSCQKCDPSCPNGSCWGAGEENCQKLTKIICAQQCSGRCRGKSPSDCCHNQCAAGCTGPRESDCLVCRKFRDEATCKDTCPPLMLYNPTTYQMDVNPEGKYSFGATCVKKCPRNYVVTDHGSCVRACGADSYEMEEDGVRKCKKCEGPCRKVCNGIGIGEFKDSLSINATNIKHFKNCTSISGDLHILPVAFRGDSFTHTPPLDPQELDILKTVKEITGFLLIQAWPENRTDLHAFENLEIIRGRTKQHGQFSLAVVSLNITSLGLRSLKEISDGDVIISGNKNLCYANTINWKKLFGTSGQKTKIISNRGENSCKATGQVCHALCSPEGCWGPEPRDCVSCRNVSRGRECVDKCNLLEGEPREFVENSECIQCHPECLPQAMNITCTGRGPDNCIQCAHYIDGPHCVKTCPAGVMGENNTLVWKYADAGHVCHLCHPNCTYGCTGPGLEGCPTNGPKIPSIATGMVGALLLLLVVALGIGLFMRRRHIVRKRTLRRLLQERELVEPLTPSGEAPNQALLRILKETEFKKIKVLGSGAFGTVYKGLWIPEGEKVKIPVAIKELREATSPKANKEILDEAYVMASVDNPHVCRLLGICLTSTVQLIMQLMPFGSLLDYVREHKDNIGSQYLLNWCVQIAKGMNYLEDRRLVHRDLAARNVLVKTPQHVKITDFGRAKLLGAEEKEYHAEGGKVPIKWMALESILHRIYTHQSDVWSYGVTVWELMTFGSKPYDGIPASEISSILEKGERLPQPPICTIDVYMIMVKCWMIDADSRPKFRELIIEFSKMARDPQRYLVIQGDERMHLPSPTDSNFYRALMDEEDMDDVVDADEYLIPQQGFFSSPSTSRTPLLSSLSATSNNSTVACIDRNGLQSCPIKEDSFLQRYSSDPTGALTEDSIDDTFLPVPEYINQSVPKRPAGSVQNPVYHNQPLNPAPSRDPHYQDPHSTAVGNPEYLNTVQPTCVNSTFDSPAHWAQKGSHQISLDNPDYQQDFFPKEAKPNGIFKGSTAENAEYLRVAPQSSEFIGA
- protocol_details: Biochemical EGFR kinase assay (Lance Ultra TR-FRET), triple mutant L858R/T790M/C797S
- conditions_used: Km ATP; read-out: IC50 L858R/T790M/C797S (nM) Km ATP

{"columns": ["compound", "IC50 [nM]"],
 "data": [
  ["Cc1nn(CC(F)(F)F)cc1-c1nccc(Nc2cc(N[C@H]3CC[C@@](C)(O)CC3)c(-c3ccn(C(F)F)n3)cn2)n1 [Example 320]", 0.2],
  ["Cc1nn(-c2cnc(Nc3ccnc(-c4cnn(S(=O)(=O)C5CC5)c4)n3)cc2N[C@H]2CC[C@@](C)(O)CC2)cc1C(F)(F)F [Example 182]", 0.8],
  ["O=S(=O)(C1CC1)n1cc(-c2nccc(Nc3cc(NN4CCC(O)CC4)c(-c4ccn(C(F)F)n4)cn3)n2)cn1 [Example 153]", 0.1],
  ["CC(C)Nc1cc(Nc2ccnc(-c3cnn(S(=O)(=O)C4CC4)c3)n2)ncc1-c1ccn(C(F)F)n1 [Example 144]", 0.7]
]}

###

Form field: IC50 (one value per entry).
- assay_system: EGFR wildtype (WT) (Homo sapiens)
- Sequence (P00533 25-1210): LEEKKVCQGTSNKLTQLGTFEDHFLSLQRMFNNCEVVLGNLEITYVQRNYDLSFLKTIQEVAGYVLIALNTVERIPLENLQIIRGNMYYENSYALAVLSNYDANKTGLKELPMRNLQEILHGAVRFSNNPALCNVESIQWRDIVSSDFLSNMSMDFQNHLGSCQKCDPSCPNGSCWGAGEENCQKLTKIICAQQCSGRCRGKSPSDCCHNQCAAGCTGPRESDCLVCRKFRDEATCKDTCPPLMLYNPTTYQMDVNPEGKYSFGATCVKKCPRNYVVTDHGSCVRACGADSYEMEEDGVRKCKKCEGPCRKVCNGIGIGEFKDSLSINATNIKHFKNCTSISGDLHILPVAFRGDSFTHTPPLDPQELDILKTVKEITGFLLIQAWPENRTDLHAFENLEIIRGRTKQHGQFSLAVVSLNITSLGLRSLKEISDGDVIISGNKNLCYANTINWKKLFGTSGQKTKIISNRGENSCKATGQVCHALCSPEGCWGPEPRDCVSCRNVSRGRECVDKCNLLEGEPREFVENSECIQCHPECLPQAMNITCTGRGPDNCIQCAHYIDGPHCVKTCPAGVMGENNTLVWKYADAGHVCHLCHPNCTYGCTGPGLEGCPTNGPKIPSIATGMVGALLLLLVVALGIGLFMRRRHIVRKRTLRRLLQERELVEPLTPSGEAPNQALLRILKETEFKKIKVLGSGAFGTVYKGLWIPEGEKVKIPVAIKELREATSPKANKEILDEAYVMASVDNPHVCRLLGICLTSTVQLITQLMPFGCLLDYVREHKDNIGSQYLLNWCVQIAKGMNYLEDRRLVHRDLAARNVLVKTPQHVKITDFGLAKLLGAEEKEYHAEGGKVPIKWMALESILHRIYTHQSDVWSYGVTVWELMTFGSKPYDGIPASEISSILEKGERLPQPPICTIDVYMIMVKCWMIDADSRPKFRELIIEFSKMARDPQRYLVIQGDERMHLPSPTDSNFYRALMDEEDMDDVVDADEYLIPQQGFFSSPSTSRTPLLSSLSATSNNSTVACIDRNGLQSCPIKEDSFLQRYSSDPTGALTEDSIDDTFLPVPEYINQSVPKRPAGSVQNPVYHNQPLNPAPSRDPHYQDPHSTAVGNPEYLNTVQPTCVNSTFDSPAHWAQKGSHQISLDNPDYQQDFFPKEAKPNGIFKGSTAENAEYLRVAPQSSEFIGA
- protocol_details: Biochemical EGFR kinase assay (Lance Ultra TR-FRET), wildtype
- conditions_used: IC50 WT (nM) 100 μM ATP, 100 μM ATP
- Method: Biochemical EGFR kinase assays were conducted using Lance Ultra time-resolved fluorescence resonance energy transfer (TR-FRET) technology from Perkin-Elmer. […] Each kinase reactions were incubated at room temperature for 1 hour and then stopped by the addition of 4 μL of stop solution (10 mM EDTA). […] After 60 minutes incubation at room temperature the LANCE signal was measured on an EnVision Multilabel Reader (Perkin-Elmer). […]
measured_parameter: IC50 (nM)

{"columns": ["query_smiles", "measured_parameter", "qualifier", "val"],
 "data": [
  ["CN(CC(F)F)C[C@H]1CC[C@@H](Nc2cc(Nc3ccnc(-c4cnn(S(=O)(=O)C5CC5)c4)n3)ncc2-c2ccn(C)n2)CC1", "IC50", "=", 2800],
  ["Cn1nc(-c2cnc(Nc3ccnc(-c4cnn(S(=O)(=O)C5CC5)c4)n3)cc2NC[C@H]2CC[C@@H](O)C2)cc1C(F)(F)F", "IC50", ">", 10000],
  ["CN(C)CCCn1ccc(-c2cnc(Nc3ccnc(-c4cnn(S(=O)(=O)C5CC5)c4)n3)cc2NCC2(CO)COC2)n1", "IC50", "=", 4690]
]}

###

The entries below come with measured IC50 values attached.
- assay_system: EGFR L858R/T790M/C797S (Homo sapiens, UniProt P00533, C797S/L858R/T790M)
- protocol_details: Biochemical EGFR kinase assay (Lance Ultra TR-FRET), triple mutant L858R/T790M/C797S
- conditions_used: Km ATP; read-out: IC50 L858R/T790M/C797S (nM) Km ATP
measured_parameter: IC50 (nM)

{"columns": ["compound", "val"],
 "data": [
  ["COc1cc(-c2nccc(Nc3cc(N[C@H]4CC[C@@](C)(O)CC4)c(-c4ccn(C(F)F)n4)cn3)n2)ccn1", 15.5],
  ["Cn1cc(-c2nccc(Nc3cc(N[C@H]4CC[C@@](C)(O)CC4)c(-c4ccn(C(F)F)n4)cn3)n2)cn1", 0.8],
  ["Cn1ccc(-c2cnc(Nc3ccnc(-c4cnn(S(=O)(=O)C5CC5)c4)n3)cc2N[C@H]2CC[C@](O)(C(F)F)CC2)n1", 0.3],
  ["Cn1nc(-c2cnc(Nc3ccnc(-c4cnn(S(=O)(=O)C5CC5)c4)n3)cc2N[C@H]2CCC[C@H](CO)C2)cc1C(F)(F)F", 3.8],
  ["Cn1nc(-c2cnc(Nc3ccnc(-c4cnn(S(=O)(=O)C5CC5)c4)n3)cc2NN2CCC(O)CC2)cc1C(F)(F)F", 0.5],
  ["O=S(=O)(C1CC1)n1cc(-c2nccc(Nc3cc(N[C@H]4CC[C@@H](CO)CC4)c(-c4ccn(C(F)F)n4)cn3)n2)cn1", 0.2],
  ["Cc1cc(-c2cnc(Nc3ccnc(-c4cnn(S(=O)(=O)C5CC5)c4)n3)cc2N[C@H]2CC[C@@H](C(C)(C)O)CC2)nn1C", 0.6],
  ["O=S(=O)(C1CC1)n1cc(-c2nccc(Nc3cc(NC4CCC(F)(F)C4)c(-c4ccn(C(F)F)n4)cn3)n2)cn1 (stereo not shown)", 2.1],
  ["Cn1ccc(-c2cnc(Nc3ccnc(-c4cnn(S(=O)(=O)C5CC5)c4)n3)cc2N[C@H]2CC[C@]3(CCC(=O)N3)CC2)n1", 0.1],
  ["CN(C)CCCn1ccc(-c2cnc(Nc3ccnc(-c4cnn(S(=O)(=O)C5CC5)c4)n3)cc2N[C@H]2CC[C@@H](C(C)(C)O)CC2)n1", 0.1],
  ["OC1CCN(Nc2cc(Nc3ccnc(-c4cnn(CC(F)F)c4)n3)ncc2-c2ccn(C(F)F)n2)CC1", 0.2],
  ["CO[C@H]1CCN(c2nccc(Nc3cc(N[C@H]4CC[C@@](C)(O)CC4)c(-c4ccn(C(F)F)n4)cn3)n2)C[C@H]1F", 0.1],
  ["Cc1cc(-c2cnc(Nc3ccnc(-c4cnn(S(=O)(=O)C5CC5)c4)n3)cc2N[C@H]2CC[C@@H](CO)CC2)nn1C", 1]
]}
